Measured Activity, listed per entry.
# Organism: Danio rerio
# test.details: Toxicity against zebrafish embryo assessed as normal embryos at 5 ug/ml measured at 96 hrs post fertilization by inverted microscopic analysis
# Format: organism-based
# experimental.context: in vivo
# number only, unit % dropped from output

Study these solved cases before continuing.
{"mol": "Cl.Cl.N=C(N)N/N=C/c1ccc(-c2ccc(/C=N/NC(=N)N)s2)cc1", "value.kind": "Activity", "measurement": 100}
{"mol": "Cc1ccc(-c2ccc(/C=N/NC(=N)N)s2)cc1.Cl", "value.kind": "Activity", "measurement": 0}
{"mol": "C[C@@H](c1ncncc1F)[C@](O)(Cn1cncn1)c1ccc(F)cc1F", "value.kind": "Activity", "measurement": 0}

Pending compound:
Query: # Activity lookup, item Cl.N=C(N)N/N=C/c1ccc(-c2ccc(Br)cc2)s1
Result: 80
